This collection of values is drawn from paper PMC11457037.

- testedSystem: UniProtKB A0A097BW19
- testSummary: Enzyme kinetic studies
- Format: biochemical
- cond: from fitting of kinetic curves

{"columns": ["compound", "Mode of inhibition of EV-D68 2A^pro"],
 "data": [
  ["CC(C)(C)[C@H](NC(=O)CC12CC3CC(CC(C3)C1)C2)C(=O)N1C[C@@H]2CCC[C@@H]2[C@H]1C(=O)N[C@H](C(=O)C(=O)NC1CC1)C1CCCCC1 [Jun11762]", "reversible binding"],
  ["CC(C)(C)[C@H](NC(=O)CC12CC3CC(CC(C3)C1)C2)C(=O)N1C[C@@H]2CCC[C@@H]2[C@H]1C(=O)N[C@H](C=O)Cc1ccc(F)cc1 [Jun11707]", "reversible binding"],
  ["CC(C)(C)[C@H](NC(=O)CC12CC3CC(CC(C3)C1)C2)C(=O)N1C[C@@H]2CCC[C@@H]2[C@H]1C(=O)N[C@H](C(=O)C(=O)NC1CC1)C1CCCC1 [Jun11808]", "reversible binding"]
]}
